Test system: INS-1E rat beta cells, no cytokines, CellTiter-Glo ATP, 48 h
Assay: cytokine-free beta-cell viability effect – INS-1E rat cells, ATP luminescence, cherry pick, counter-screen for beta-cell apoptosis protection project, dose response (AID 463229)
What AC50 was measured for each of the following?

Give INS-1E rat beta cells, no cytokines, CellTiter-Glo ATP, 48 h AC50 for `Cc1nn(-c2nc3ccccc3[nH]2)c(=O)c2ccccc12`
1.31 µM

Lookup `N=c1c2c(n(Cc3ccc(Cl)c(Cl)c3)c3c1CCC3)CCCC2`
3.57 µM

Lookup `COc1ccc(O)c(C(=O)c2cnc3nc4ccccc4n3c2)c1`
6.33 µM

Lookup `CCOC(=O)COc1ccc2ccccc2c1/C=C/[N+](=O)[O-]`
10.6 µM

Lookup `C/C(=N\Nc1nc2ccccc2[nH]1)c1ccccn1`
0.56 µM

Lookup `O=[N+]([O-])c1cc(Cl)cc(/C=N\Nc2ccccn2)c1O`
2.55 µM

====

What AC50 was measured for each of the following?
Tested on: INS-1E rat beta cells, no cytokines, CellTiter-Glo ATP, 48 h
Experiment: cytokine-free beta-cell viability effect – INS-1E rat cells, ATP luminescence, cherry pick, counter-screen for beta-cell apoptosis protection project, dose response (AID 463229)

Which AC50 reading was recorded for the molecule CC(=O)NC(c1ccco1)c1cc(F)c2cccnc2c1O (stereo not given) ?
10.6 µM

Lookup `COC(=O)[C@H](Cc1ccccc1)N(Cc1ccccc1)S(=O)(=O)N(Cc1ccccc1)[C@@H](Cc1ccccc1)C(=O)OC`
4.38 µM

Lookup `CC1=C/C(=N\OS(=O)(=O)c2ccccc2)C(C)=CC1=O`
1.52 µM

Lookup `CC(=O)Nc1sc2c(c1-c1nc3ccccc3s1)CN(C(C)C)CC2`
3.79 µM

Lookup `O=C(/C(=C/c1ccc(Cl)cc1)c1nc2ccccc2[nH]1)c1cccs1`
4.4 µM

Lookup `Cn1c(=O)[nH]c(=O)c2c1nc([N+](=O)[O-])n2Cc1ccccc1`
6.67 µM

Lookup C/C(=N\N1C(=O)c2ccccc2NC1c1ccco1)c1ccccc1O (stereo not given)
12.5 µM

Lookup CCN(Cc1ccccc1)C(c1ccc(C(F)(F)F)cc1)c1nnnn1C(C)(C)C (stereo not given)
4.83 µM

Lookup Cc1cccc2sc(NNC(=O)c3ccc(S(=O)(=O)N4CCCC(C)C4)cc3)nc12 (stereo not given)
6.74 µM

Lookup `COC(=O)c1ccccc1NC1=C/C(=N\S(=O)(=O)c2ccc(C(=O)O)cc2)c2ccccc2C1=O`
9.17 µM

====

What AC50 was measured for each of the following?
Test system: INS-1E rat beta cells, no cytokines, CellTiter-Glo ATP, 48 h
Test: cytokine-free beta-cell viability effect – INS-1E rat cells, ATP luminescence, cherry pick, counter-screen for beta-cell apoptosis protection project, dose response (AID 463229)

Which AC50 reading was recorded for the compound `COc1ccc(O)c(/C=N/NC(=O)c2ccc(CSc3nc(C)cc(C)n3)cc2)c1` ?
11.2 µM

Lookup `COc1ccc(OC)c(NC(=O)c2nc(S(=O)(=O)Cc3ccccc3)ncc2Cl)c1`
7.87 µM

Lookup `CCCCCCCC(=O)Nc1ccc(C(=O)N/N=C/c2cccc([N+](=O)[O-])c2)cc1`
6.63 µM

Lookup `CCN1/C(=C\C=C\C2=[N+](CC)c3ccccc3C2(C)C)C(C)(C)c2ccccc21`
< 0.195 µM

Lookup `O=[N+]([O-])c1ccc(S(=O)(=O)c2ccccc2)nc1`
10.6 µM

Lookup `CCn1c(SCC(=O)Nc2cc(C)on2)nc2sc3c(c2c1=O)CCCC3`
16.7 µM

Lookup `O=C(Nc1nc2ccc(F)cc2s1)c1ccccn1`
4.43 µM

Lookup `Cc1cc(Nc2cccc(F)c2)nc(NCc2ccccc2)n1`
5.15 µM

Lookup `O=C(NC(Nc1nc2ccc([N+](=O)[O-])cc2s1)(C(F)(F)F)C(F)(F)F)c1ccccc1`
0.367 µM

Lookup COc1ccc(C(C(=O)NC2CCCCC2)N(C(=O)CCl)c2cccc(Cl)c2)cc1 (stereo not given)
7.03 µM
